test system: LNCaP; assay: Cytotoxicity against human LNCAP cells after 48 hrs by sulforhodamine B assay; format: functional, cell-based
pIC50: −log10 of the molar value.
Lab note: compare pIC50 against 7. Equal or greater, write 1. Smaller, write -1.

• COc1ccc(-c2ncc(C(=O)c3ccc(F)cc3)n2S(=O)(=O)c2ccccc2)cc1 = 1
• COc1cc(C(=O)c2cnc(-c3ccccc3C(F)(F)F)n2S(=O)(=O)c2ccccc2)cc(OC)c1OC = -1
• COc1cc(C(=O)n2ccnc2-c2ccccc2)cc(OC)c1OC = -1
• O=C(c1ccc(F)cc1)c1c[nH]c(-c2ccc(O)cc2)n1 = -1
• CN(C)c1ccc(-c2nc(C(=O)c3ccc(F)cc3)c[nH]2)cc1 = 1
• COc1ccc(-c2ncc(C(=O)c3ccc(F)cc3)n2S(=O)(=O)c2ccccc2)cc1OC = -1
• O=C(c1cccc(F)c1)c1cnc(-c2ccccc2)n1S(=O)(=O)c1ccccc1 = -1
• COc1cc(-c2ncc(C(=O)c3ccc(F)cc3)n2S(=O)(=O)c2ccccc2)cc(OC)c1OC = -1
• COc1cc(-c2nc(C(=O)c3ccc(F)cc3)c[nH]2)cc(OC)c1OC = -1
• COc1cc(C(=O)c2c[nH]c(-c3cc(OC)c(OC)c(OC)c3)n2)cc(OC)c1OC = -1
• O=S(=O)(c1ccccc1)n1ccnc1-c1ccc(OCc2ccccc2)cc1 = -1
• Cc1ccc(-c2nc(C(=O)c3ccc(F)cc3)c[nH]2)cc1 = 1
• O=C(c1cccc(F)c1)c1c[nH]c(-c2ccccc2)n1 = -1
• COc1cc(C(=O)c2c[nH]c(-c3ccc(N(C)C)cc3)n2)cc(OC)c1OC = 1
• Cc1ccc(C(=O)c2c[nH]c(-c3ccccc3)n2)cc1 = -1
• COc1cc(OC)cc(C(=O)c2c[nH]c(-c3ccccc3)n2)c1 = -1
• COc1cc(C(=O)c2c[nH]c(-c3ccc(Cl)cc3)n2)cc(OC)c1OC = 1
• COc1cc(C(=O)c2c[nH]c(-c3ccc(OCc4ccccc4)cc3)n2)cc(OC)c1OC = -1

----------
Here, each record is paired with measured IC50 data.
system: MDA-MB-435; assay: cells; details: Homo sapiens, MDA-MB-435, 48 h
Description: Cytotoxicity against human MDA-MB-435 cells after 48 hrs by sulforhodamine B assay
quantity: IC50

* COc1ccc(-c2ncc(C(=O)c3ccc(F)cc3)n2S(=O)(=O)c2ccccc2)cc1 | 30 nM
* COc1ccc(-c2nc(C(=O)c3ccc(F)cc3)c[nH]2)cc1 | 30 nM

----------
system: PC-3; assay: cells; conditions: Homo sapiens, PC-3, 48 h
Description: Cytotoxicity against human PC3 cells after 48 hrs by sulforhodamine B assay
# true = IC50 below 100 nM (exclusive); false = IC50 at/above 100 nM

• COc1ccc(-c2ncc(C(=O)c3ccc(F)cc3)n2S(=O)(=O)c2ccccc2)cc1 = true
• COc1ccc(-c2ncc(C(=O)c3ccc(F)cc3)n2S(=O)(=O)c2ccccc2)cc1OC = false
• O=C(c1ccc(F)cc1)c1cnc(-c2ccccc2)n1S(=O)(=O)c1ccccc1 = false
• COc1cc(C(=O)c2cnc(-c3ccccc3C(F)(F)F)n2S(=O)(=O)c2ccccc2)cc(OC)c1OC = false
• COc1cc(C(=O)c2c[nH]c(-c3ccc(N(C)C)cc3)n2)cc(OC)c1OC = true
• O=C(c1ccc(F)cc1)c1c[nH]c(-c2ccc(OCc3ccccc3)cc2)n1 = true
• O=C(c1ccc(F)cc1)c1cnc(-c2ccc(Cl)cc2)n1S(=O)(=O)c1ccccc1 = true
• COc1cc(C(=O)c2c[nH]c(-c3ccc(C(F)(F)F)cc3)n2)cc(OC)c1OC = false
• COc1cc(C(=O)c2c[nH]c(-c3ccc(OCc4ccccc4)cc3)n2)cc(OC)c1OC = false
• COc1cc(C(=O)c2cnc(-c3cc(OC)c(OC)c(OC)c3)n2S(=O)(=O)c2ccccc2)cc(OC)c1OC = false
• CN(C)c1ccc(-c2nc(C(=O)c3ccc(F)cc3)c[nH]2)cc1 = true
• O=C(c1cccc(F)c1)c1cnc(-c2ccccc2)n1S(=O)(=O)c1ccccc1 = false
• COc1cc(C(=O)c2cnc(-c3ccc(N(C)C)cc3)n2S(=O)(=O)c2ccccc2)cc(OC)c1OC = true
• COc1ccc(-c2nc(C(=O)c3ccc(F)cc3)c[nH]2)cc1OC = false
• COc1ccc(C(=O)c2c[nH]c(-c3ccccc3)n2)cc1OC = false
• COc1ccc(-c2ncc(C(=O)c3cc(OC)c(OC)c(OC)c3)n2S(=O)(=O)c2ccccc2)cc1OC = false
• Cc1ccc(-c2ncc(C(=O)c3ccc(F)cc3)n2S(=O)(=O)c2ccccc2)cc1 = true
• COc1cc(C(=O)n2ccnc2-c2ccccc2)cc(OC)c1OC = false
• Cc1ccc(C(=O)c2c[nH]c(-c3ccccc3)n2)cc1 = false
• COc1cc(C(=O)c2c[nH]c(-c3ccc(Cl)cc3)n2)cc(OC)c1OC = true

----------
# IC50 annotations
tested on: PC-3; test: cells; conditions: Homo sapiens, PC-3, 48 h
quantity: IC50

* O=[N+]([O-])c1ccc(-c2nccn2S(=O)(=O)c2ccccc2)cc1 | > 10 µM
* O=S(=O)(c1ccccc1)n1ccnc1-c1ccc(OCc2ccccc2)cc1 | > 10 µM
* COc1cccc(C(=O)c2c[nH]c(-c3ccccc3)n2)c1 | > 10 µM
* COc1ccc(-c2nc(C(=O)c3cc(OC)c(OC)c(OC)c3)c[nH]2)cc1 | 0.045 µM
* COc1ccc(C(=O)c2cnc(-c3ccccc3)n2S(=O)(=O)c2ccccc2)cc1 | > 10 µM
* O=S(=O)(c1ccccc1)n1ccnc1-c1ccccc1 | > 10 µM

----------
tested on: LNCaP; experiment: Cytotoxicity against human LNCAP cells after 48 hrs by sulforhodamine B assay; format: functional, cell-based
log10 of IC50 by entry:
quantity: log10 of IC50 (log10 of the value in µM)

• O=C(c1ccc(F)cc1)c1c[nH]c(-c2ccccc2)n1 = -0.21
• O=C(c1ccc(F)cc1)c1cnc(-c2ccccc2)n1S(=O)(=O)c1ccccc1 = -0.24
• O=C(c1cc(O)c(O)c(O)c1)c1c[nH]c(-c2ccc(Cl)cc2)n1 = 1.00
• O=C(c1ccc(F)cc1)c1cnc(-c2ccc(OCc3ccccc3)cc2)n1S(=O)(=O)c1ccccc1 = -1.46
• O=C(c1ccc(F)cc1)c1c[nH]c(-c2ccc(OCc3ccccc3)cc2)n1 = -1.36
• Cc1ccc(-c2ncc(C(=O)c3ccc(F)cc3)n2S(=O)(=O)c2ccccc2)cc1 = -1.26
• O=C(c1ccc(F)cc1)c1cnc(-c2ccc(Cl)cc2)n1S(=O)(=O)c1ccccc1 = -1.32
• COc1ccc(-c2nc(C(=O)c3ccc(F)cc3)c[nH]2)cc1OC = 0.40
• COc1ccc(-c2nc(C(=O)c3cc(OC)c(OC)c(OC)c3)c[nH]2)cc1 = -1.51

----------
Below, each of the compounds is paired with its reported solubility thermodynamic at 24 h value.
assay: Aqueous solubility of the compound in buffer at pH 7 after 24 hrs by shake-flask method; format: physicochemical
quantity: solubility thermodynamic at 24 h (µg/mL)

- CC(=O)O[C@H]1C(=O)[C@@]2(C)[C@H]([C@H](OC(=O)c3ccccc3)[C@]3(O)C[C@H](OC(=O)[C@H](O)[C@@H](NC(=O)c4ccccc4)c4ccccc4)C(C)=C1C3(C)C)[C@]1(OC(C)=O)CO[C@@H]1C[C@@H]2O: 0.137
- COc1cc(C(=O)c2c[nH]c(-c3ccc(N(C)C)cc3)n2)cc(OC)c1OC: 48.9
- COc1ccc(/C=C\c2cc(OC)c(OC)c(OC)c2)cc1O: 1.04
- COc1cc(C(=O)c2csc(-c3ccc(N(C)C)cc3)n2)cc(OC)c1OC: 0.909

----------
system: DU-145; assay: cells; details: Homo sapiens, DU-145, 48 h
Description: Cytotoxicity against human DU145 cells after 48 hrs by sulforhodamine B assay
Quick reference: IC50 of the listed items.
quantity: IC50 (nM)

* COc1cc(C(=O)c2c[nH]c(-c3ccc(OCc4ccccc4)cc3)n2)cc(OC)c1OC | 10000
* O=C(c1ccc(F)cc1)c1c[nH]c(-c2ccccc2)n1 | 850
* O=C(c1ccc(F)cc1)c1cnc(-c2ccc(OCc3ccccc3)cc2)n1S(=O)(=O)c1ccccc1 | 58
* COc1cc(C(=O)c2c[nH]c(-c3ccc(Cl)cc3)n2)cc(OC)c1OC | 36
* COc1cc(OC)cc(C(=O)c2c[nH]c(-c3ccccc3)n2)c1 | 2600
* CN(C)c1ccc(-c2ncc(C(=O)c3ccc(F)cc3)n2S(=O)(=O)c2ccccc2)cc1 | 74
* COc1cc(C(=O)c2c[nH]c(-c3ccc(N(C)C)cc3)n2)cc(OC)c1OC | 95
* COc1ccc(-c2ncc(C(=O)c3ccc(F)cc3)n2S(=O)(=O)c2ccccc2)cc1OC | 3310
* Cc1ccc(-c2ncc(C(=O)c3ccc(F)cc3)n2S(=O)(=O)c2ccccc2)cc1 | 80
* COc1cc(C(=O)c2c[nH]c(-c3ccccc3)n2)cc(OC)c1OC | 200
* O=C(c1ccc(F)cc1)c1c[nH]c(-c2ccc(OCc3ccccc3)cc2)n1 | 60
